# Tested on: MRCKA
# condition.description: concentration: 1 μM, replicates: in singlicate; n = 1
Class (by %Inh) -- range A = under 2%, range B = from 2% up to 10%, range C = 10% and over

Problem: Place this compound in its band: CN1c2ccc(-c3ccc(C(N)=O)cc3)cc2-c2[nH]ncc2S1(=O)=O
Solution: range A

Problem: COc1ccc(-c2coc3ccc(-c4nnc(C)o4)cc23)cc1 , same question.
Solution: range A

Problem: One more compound: Cl.Cl.Cl.N#Cc1ccc(CCNc2nccc(-c3cccc(CN4CCNCC4)c3)n2)cc1
Solution: range C

Problem: Similarly, CC(=O)c1cccc(NC(=O)NC2CCN(c3ccnc(Nc4ccc(F)cc4)n3)C2)c1 (stereo not drawn) ?
Solution: range C

Problem: And then CNc1cc(-c2ccc3c(N)n[nH]c3c2)nc(N)n1 , what is it?
Solution: range B

Problem: Consider next the compound COc1cccc(CNC(=O)NC2CCN(c3ccnc(Nc4ccc(F)cc4)n3)C2)c1 (stereo not drawn) in the same way.
Solution: range C

Problem: Next up: CNc1nc(-c2ccc3c(N)n[nH]c3c2)cc(N2C[C@@H](C(=O)NC3CCCCC3)OC[C@H]2C)n1
Solution: range B

Problem: Same thing, different compound: Cc1nccc(-c2c(-c3ccc(F)cc3)ncn2CCCN2CCOCC2)n1.Cl
Solution: range C

Problem: Field entry: COC(=O)c1cccc(NC(=O)NC2CCN(c3ccnc(Nc4ccc(F)cc4)n3)C2)c1 (stereo not drawn)
Solution: range B

Problem: What do you get for Nc1nccc(-c2c(-c3ccc(F)cc3)ncn2C2CCN(Cc3ccccc3)CC2)n1 ?
Solution: range A

Problem: Follow-up entry: CC(C)c1cc(-c2ccc3c(N)n[nH]c3c2)nc(N)n1
Solution: range C

Problem: // repeat for CCc1ccc(-c2ccc3c(c2)-c2n[nH]cc2S(=O)(=O)N3C)cc1 and report
Solution: range A

Problem: And for O=C(Nc1n[nH]c2cc(-c3ccsc3)ccc12)C1CC1 ?
Solution: range C

Problem: Would you mind doing COc1ccc(CSc2nnc(-c3ccc4nccn4c3)o2)cc1C(F)(F)F as well?
Solution: range B

Problem: Do the same for CC(=O)c1c(C)c2cnc(Nc3ccc(N4CCNCC4)cn3)nc2n(C2CCCC2)c1=O please
Solution: range A

---

# Test system: PIKFYVE;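 further: kd values determined as follow-up on hits from a single-replicate KINOMEscan panel screen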
pKd: −log10 of the molar value.
measure: pKd

Problem: Quick one: pKd of CCc1ccc(-c2ccc3c(c2)-c2n[nH]cc2S(=O)(=O)N3C)cc1 ?
Solution: < 5.00

---

Consider the following compounds; for each one, report its %Inh.
# System: PRP4
# condition.description: concentration: 1 μM, replicates: in singlicate; n = 1
The response must be a number in % with no trailing unit.

Problem: Lab note: need %Inh with PRP4 for entry COc1ccc(Nc2nccc(N3CCC(NC(=O)C(C)c4ccc(Cl)cc4)CC3)n2)cc1 (centres unmarked) , please look it up.
Solution: 18

Problem: Ok, now O=c1cc(N2CCOCC2)nc2n(Cc3cccc(Cl)c3Cl)c3ccccc3n12
Solution: 0

Problem: Next entry: Fc1ccc(-c2nn3cccc(F)c3c2-c2ccncc2)cc1
Solution: 29

Problem: Moving on to COc1ccc(CSc2nnc(-c3ccc4c(c3)CCO4)o2)cc1
Solution: 16

Problem: Please do the same for CNc1nc(-c2ccc3c(N)n[nH]c3c2)cc(N2C[C@@H](C(=O)NC3CCCCC3)OC[C@H]2C)n1 as well.
Solution: 16

---

# System: FGFR3
# condition.description: concentration: 1 μM, replicates: in singlicate; n = 1
%Inh strictly less than 5% = Yes. Otherwise No.

Problem: For the compound COc1cccc(C2=C(Nc3cc(Cl)c(O)c(Cl)c3)C(=O)NC2=O)c1 , is %Inh under 5%?
Solution: No

Problem: Same question, CS(=O)(=O)Cc1ccc(Nc2nccc(-c3c(-c4cccc(NC(=O)C5CCCCC5)c4)nn4ncccc34)n2)cc1 this time
Solution: No

Problem: What about COc1ccc(Nc2nccc(N3CCC(NC(=O)c4cc5ccccc5s4)C3)n2)cc1 (stereo not shown) ?
Solution: Yes

Problem: Now the same for Cc1cnc(N)c(/C=C/c2cncc(C(=O)NCCc3ccc(Cl)cc3Cl)c2)c1.Cl
Solution: No

Problem: Note, next up: O=C1NC(=O)C(c2ccc(Cl)cc2)=C1Nc1cccc(Cl)c1
Solution: Yes

Problem: Item: Fc1ccc(-c2nc[nH]c2-c2ccncc2)cc1
Solution: Yes

Problem: Param item: COc1cccc(NC(=O)Nc2ccc(C)c(-c3ccc(C(=O)Nc4ccncc4)cc3)c2)c1
Solution: No

Problem: Can you handle FC(F)(F)c1ccccc1-c1cc(-c2c[nH]nc2-c2ccccn2)ccn1 next?
Solution: Yes

Problem: Lookup Cc1ccc(NC(=O)c2ccc(Cl)cc2)cc1-c1ccc(C(=O)Nc2ccncc2)cc1
Solution: No

Problem: Then COC(=O)C(Cc1ccccc1)NC(=O)NC1CCN(c2ccnc(Nc3ccc(F)cc3)n2)C1 (stereo not shown) ?
Solution: No

Problem: Can you handle c1ccc(-c2ccnc3[nH]ccc23)cc1 next?
Solution: No

Problem: Again, but for CCc1ccc(-c2ccc3c(c2)-c2n[nH]cc2S(=O)(=O)N3C)cc1
Solution: Yes

Problem: What about CC(=O)c1c(C)c2cnc(Nc3ccn(C)n3)nc2n(C2CCCC2)c1=O ?
Solution: Yes

Problem: // query: COc1cccc(CNC(=O)NC2CCN(c3ccnc(Nc4ccc(F)cc4)n3)C2)c1 (stereo not shown)
Solution: No

Problem: Also, O=C1NC(=O)C(c2ccc(Cl)cc2)=C1Nc1ccc(O)cc1 please.
Solution: Yes

---

# Test system: HUNK
# condition.description: concentration: 1 μM, replicates: in singlicate; n = 1
measure: %Inh (%)
State the answer as a number, implicitly in %.

Problem: Name the recorded %Inh for COc1ccc(Nc2nccc(N3CCC(NC(=O)C(C)c4ccc(Cl)cc4)CC3)n2)cc1 (stereo not shown) .
Solution: 10

Problem: Please answer likewise for NS(=O)(=O)c1cccc(N/C=C2\C(=O)Nc3ccc(S(=O)(=O)Cc4c(Cl)cccc4Cl)cc32)c1
Solution: 0

Problem: Continue with CCn1c(-c2ccccc2)nc2cnccc21
Solution: 0

Problem: Please give the result for Cn1cncc1-c1cc2c(Nc3ccc(OCc4ccccc4)cc3)ncnc2cn1 too.
Solution: 8

Problem: Same question for CC(C)c1ccc(O)cc1Nc1ccnc2ccc(C(F)(F)F)cc12 please.
Solution: 0

Problem: Record: Cc1c(Cn2c(C)c(C)n3c(=O)cc(N4CCOCC4)nc23)cccc1C(F)(F)F
Solution: 0

Problem: Note, next up: O=c1cc(N2CCOCC2)nc2n(Cc3cccc(Cl)c3Cl)c3ccccc3n12
Solution: 0

Problem: Input CS(=O)(=O)CCNCc1nc(-c2ccc3ncnc(Nc4ccc5c(cnn5Cc5ccccc5)c4)c3c2)cs1.Cl.Cl
Solution: 28

Problem: How about CCc1ccc(-c2ccc3c(c2)-c2n[nH]cc2S(=O)(=O)N3C)cc1 ?
Solution: 34

Problem: Same thing, different molecule: CNc1nc(-c2ccc3c(N)n[nH]c3c2)cc(N2C[C@@H](C(=O)Nc3ccccc3)CC[C@H]2C)n1
Solution: 0

Problem: Ok, now CC(=O)c1c(C)c2cnc(Nc3ccn(C)n3)nc2n(C2CCCC2)c1=O
Solution: 0

Problem: Do the same for Cc1cccc2c(-c3ccncn3)c(-c3ccc(F)cc3)nn12 please
Solution: 0

Problem: Item: CCCCc1nn2ncccc2c1-c1ccnc(NC2CC2)n1
Solution: 2

---

Provide the recorded %Inh for the entries that follow.
# System: VRK2
# condition.description: concentration: 1 μM, replicates: in singlicate; n = 1
Return type: number; implicit unit %.

Problem: Please tell me: %Inh of COc1cccc(CNC(=O)NC2CCN(c3ccnc(Nc4ccc(F)cc4)n3)C2)c1 (stereo not shown) [GSK1379723] , system VRK2?
Solution: 0

Problem: What about this molecule? NS(=O)(=O)c1cccc(N/C=C2\C(=O)Nc3ccc(S(=O)(=O)Cc4c(Cl)cccc4Cl)cc32)c1 [GSK398099]
Solution: 0

Problem: Thanks! And CS(=O)(=O)Cc1ccc(Nc2nccc(-c3c(-c4cccc(NC(=O)C5CCCCC5)c4)nn4ncccc34)n2)cc1 [GSK350559] ?
Solution: 49

Problem: Please do the same for Cc1c(Cn2c(C)c(C)n3c(=O)cc(N4CCOCC4)nc23)cccc1C(F)(F)F [GSK2328680] as well.
Solution: 0

Problem: Query CN1c2ccc(-c3ccc(C(N)=O)cc3)cc2-c2[nH]ncc2S1(=O)=O next
Solution: 3

Problem: Item: Fc1ccc(-c2nc3n(c2-c2ccncc2)CCS3)cc1 [GI98581]
Solution: 0

Problem: Repeat for the following molecule: COc1ccc(Nc2nccc(-c3ccc(NC(=O)c4cc5cc(F)ccc5[nH]4)cc3)n2)cc1 [GSK1229496]
Solution: 0

Problem: Now consider COc1nccc(-c2c(-c3ccc(F)cc3)ncn2CCCN2CCOCC2)n1 [SB-282852] and answer again.
Solution: 77

Problem: Okay, and CC(C)c1ccc(O)cc1Nc1ccnc2ccc(C(F)(F)F)cc12 [GW482059] ?
Solution: 0

Problem: Same lookup for Cc1ccc(-c2nc(Nc3ccncc3)c3ccccc3n2)s1 [GSK189015] , please.
Solution: 0
